- Test system: RAF1
- CONDITION CONTEXT: concentration: 1 μM, replicates: in singlicate; n = 1;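 note: KINOMEscan kinase panel screen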
Lab note: anything with %Inh below 20% is marked t; values at 20% or higher are marked f.

| COMPOUND | CLASS ASSIGNMENT |
| --- | --- |
| Cc1ccc(C(=O)Nc2ccc(Nc3ccnc4cc(-c5ccccn5)ccc34)cc2O)cc1.Cl | t |
| Nc1ncnc2[nH]c(-c3ccccc3)nc12 | f |
| COC(=O)c1c(-c2ccccc2)c2cc(C(=O)O)ccc2c(=O)n1Cc1ccccc1 | f |
| COc1ccc(CNC(=O)NC2CCN(c3ccnc(Nc4cc(OC)c(OC)c(OC)c4)n3)C2)cc1 (stereo not shown) | t |
| Cc1cccc(-c2nc(C)cc(Nc3ccncc3)n2)n1 | f |
| Cc1c(O)cccc1Nc1ccnc2ccc(C(F)(F)F)cc12.Cl | f |
| COc1cc2nccc(Nc3ccc(NC(=O)c4ccc(C)cc4)c(O)c3)c2cc1OC.Cl | t |
| COc1ccccc1-c1ccc2c(NC(=O)C3CC3)n[nH]c2n1 | f |
| COc1cccc(NC(=O)NC2CCN(c3ccnc(Nc4ccc(F)cc4)n3)C2)c1 (stereo not shown) | t |
| Cc1cc(N2Cc3ccccc3C2)nc(Nc2ccc(S(=O)(=O)N3CCOCC3)cc2)n1.Cl | t |
| CCn1c(-c2cccnc2O)nc2cnccc21 | t |
| NC(=O)c1nnc2ccccc2c1N | t |
| CC1=C(C(=O)Nc2cc3cn[nH]c3cc2F)C(c2ccc(C(F)(F)F)cc2)CC(=O)N1 (stereo not shown) | t |

---

- Tested on: STK39
- CONDITION CONTEXT: concentration: 1 μM, replicates: in singlicate; n = 1
Reported values of %Inh for individual entries

| SUBSTANCE SMILES | TARGET | UNIT ABBREV | %Inh |
| --- | --- | --- | --- |
| COc1cc2ncnc(Nc3ccc4nc(-c5ccccc5)[nH]c4c3)c2cc1OC.Cl | STK39 | % | 0 |
| O=c1cc(N2CCOCC2)nc2n(Cc3cccc(Cl)c3Cl)ccn12 | STK39 | % | 0 |
| Cc1cccc(-c2nc(Nc3cccc(C(N)=O)c3)c3ccccc3n2)n1 | STK39 | % | 0 |
| Cn1ccc2ncnc(Oc3ccc(Nc4nc5ccccc5[nH]4)cc3)c21 | STK39 | % | 0 |
| Cc1ccc(NC(=O)Nc2cc(C(C)(C)C)nn2-c2ccccc2)cc1 | STK39 | % | 2 |
| Cc1c(O)cccc1Nc1ccnc2ccc(C(F)(F)F)cc12.Cl | STK39 | % | 3 |
| O=C(Nc1n[nH]c2nc(-c3nccs3)c(Br)cc12)C1CCCC1 | STK39 | % | 21 |

---

- System: PCTK1
- Construct: gene CDK16
- CONDITION CONTEXT: concentration: 1 μM, replicates: in singlicate; n = 1
Reported values of %Inh for individual entries
MEASURE: %Inh (%)

| MOLECULE | TARGET | TEST VALUE |
| --- | --- | --- |
| Cl.O=C(Nc1cccc(-c2nn3ncccc3c2-c2ccnc(Nc3cccnc3)n2)c1)c1c(F)cccc1F | PCTK1 | 1 |
| CC(C)(C)c1ccc(C(=O)Nc2cn3cc(Cl)ccc3n2)cc1 | PCTK1 | 0 |
| Cl.c1ccc(-c2n[nH]cc2-c2ccnc(-c3ccc(CN4CCOCC4)cc3)c2)nc1 | PCTK1 | 0 |
| COc1cccc(-c2cc(-c3c[nH]nc3-c3ccccn3)ccn2)c1 | PCTK1 | 0 |
| Cc1cc(N2Cc3ccccc3C2)nc(Nc2ccc(S(=O)(=O)N3CCOCC3)cc2)n1.Cl | PCTK1 | 0 |
| COc1cc2ncn(-c3cc(OCC4CCCO4)c(C(N)=O)s3)c2cc1OC (stereo not drawn) | PCTK1 | 0 |
